Experiment: Pharmacokinetic study of long acting preparation in Beagle dogs
Type: in vivo, Beagle dog
Settings: dog, plasma, im, 24.3 mg/kg, Table 7, Dog 2, Dose 24.3 mg/kg; read-out: CLt (converted)
observed-property: CL/F (mL/h/kg)
Give bare numbers, in mL/h/kg.

Prompt line: Please give the measured CL/F for this compound: O=C(CCCCCCCCC(=O)Oc1ccc2c3c1O[C@H]1[C@@H](O)CC[C@@]4(O)[C@@H](C2)N(CC2CCC2)CC[C@]314)Oc1ccc2c3c1O[C@H]1[C@@H](O)CC[C@@]4(O)[C@@H](C2)N(CC2CCC2)CC[C@]314 [sebacoyl dinalbuphine ester]
Response line: 1.21

* * *

Assay: Pharmacokinetic study of long acting preparation in Beagle dogs
Assay type: in vivo, Beagle dog
Details: dog, plasma, im, 30 mg/kg, Mean of 5 dogs; 30 mg/kg i.m.; read-out: k10 (converted)
Experimental: Six Beagle dogs were used. […] Relationship between time and concentration was analyzed by PCNONLIN computer program. Two compartment model and pharmacokinetic parameters were calculated to depicted absorption, distribution, metabolism, and excretion of drugs in dogs.
observed-property: k el (s⁻¹)
Give bare numbers, in s⁻¹.

Prompt line: Please give the measured k el for this compound: O=C(CCCCCCCCC(=O)Oc1ccc2c3c1O[C@H]1[C@@H](O)CC[C@@]4(O)[C@@H](C2)N(CC2CCC2)CC[C@]314)Oc1ccc2c3c1O[C@H]1[C@@H](O)CC[C@@]4(O)[C@@H](C2)N(CC2CCC2)CC[C@]314
Response line: 0.000339

* * *

Experiment: Pharmacokinetic study of long acting preparation in Beagle dogs
Type: in vivo, Beagle dog
Conditions: dog, plasma, im, Beagle dogs, intramuscular; read-out: half life for excretion (converted)
Experimental: Six Beagle dogs were used. […] Relationship between time and concentration was analyzed by PCNONLIN computer program. Two compartment model and pharmacokinetic parameters were calculated to depicted absorption, distribution, metabolism, and excretion of drugs in dogs.
observed-property: half-life

Prompt line: Please give the measured half-life for this compound: O=C(CCCCCCCCC(=O)Oc1ccc2c3c1O[C@H]1[C@@H](O)CC[C@@]4(O)[C@@H](C2)N(CC2CCC2)CC[C@]314)Oc1ccc2c3c1O[C@H]1[C@@H](O)CC[C@@]4(O)[C@@H](C2)N(CC2CCC2)CC[C@]314
Response line: ~30 h

* * *

Assay: Pharmacokinetic study of long acting preparation in Beagle dogs
Format: in vivo, Beagle dog
Conditions: dog, plasma, im, 30 mg/kg, Mean of 5 dogs; 30 mg/kg i.m.; read-out: Cmax
observed-property: Cmax (ng/mL)
Give bare numbers, in ng/mL.

Prompt line: Please give the measured Cmax for this molecule: O=C(CCCCCCCCC(=O)Oc1ccc2c3c1O[C@H]1[C@@H](O)CC[C@@]4(O)[C@@H](C2)N(CC2CCC2)CC[C@]314)Oc1ccc2c3c1O[C@H]1[C@@H](O)CC[C@@]4(O)[C@@H](C2)N(CC2CCC2)CC[C@]314 [sebacoyl dinalbuphine ester]
Response line: 149

* * *

Test: Pharmacokinetic study of long acting preparation in Beagle dogs
Type: in vivo, Beagle dog
Settings: dog, plasma, im, 24.3 mg/kg, Table 7, Dog 2, Dose 24.3 mg/kg; read-out: F
observed-property: bioavailability

Prompt line: Please give the measured bioavailability for this compound: O=C(CCCCCCCCC(=O)Oc1ccc2c3c1O[C@H]1[C@@H](O)CC[C@@]4(O)[C@@H](C2)N(CC2CCC2)CC[C@]314)Oc1ccc2c3c1O[C@H]1[C@@H](O)CC[C@@]4(O)[C@@H](C2)N(CC2CCC2)CC[C@]314 [sebacoyl dinalbuphine ester]
Response line: 59%

* * *

Experiment: Pharmacokinetic study of long acting preparation in Beagle dogs
Assay type: in vivo, Beagle dog
Details: dog, plasma, im, Beagle dogs, intramuscular; read-out: bioavailability
observed-property: bioavailability

Prompt line: Please give the measured bioavailability for this molecule: O=C(CCCCCCCCC(=O)Oc1ccc2c3c1O[C@H]1[C@@H](O)CC[C@@]4(O)[C@@H](C2)N(CC2CCC2)CC[C@]314)Oc1ccc2c3c1O[C@H]1[C@@H](O)CC[C@@]4(O)[C@@H](C2)N(CC2CCC2)CC[C@]314 [sebacoyl dinalbuphine ester]
Response line: ~63%

* * *

Experiment: Pharmacokinetic study of long acting preparation in Beagle dogs
Format: in vivo, Beagle dog
Conditions: dog, plasma, im, 81 mg/kg, Table 7, Dog 2, Dose 81.0 mg/kg; read-out: β (converted)
observed-property: k el (s⁻¹)
One number for each entry, in s⁻¹.

Prompt line: Please give the measured k el for this molecule: O=C(CCCCCCCCC(=O)Oc1ccc2c3c1O[C@H]1[C@@H](O)CC[C@@]4(O)[C@@H](C2)N(CC2CCC2)CC[C@]314)Oc1ccc2c3c1O[C@H]1[C@@H](O)CC[C@@]4(O)[C@@H](C2)N(CC2CCC2)CC[C@]314
Response line: 4.72e-06
